# Tested on: Fer (mouse)
# ASSAY: phosphorylation enrichment, bacterial display (enrichment ratio); higher = better substrate or ligand; peptides without Tyr show the background
Classes (phosphorylation enrichment): I: < 0.5; II: ≥ 0.5 and < 0.7; III: ≥ 0.7

Observe how each entry below is paired with its result.
GET /class?item= VRFVDYVLFRS [FAM189B_Y361_S358F]
I

Class? Entry: GDEAIYATVAG [NRTKtide_2018]
III

***
Please indicate the class for DQLVKHGVNPG [TMPO_Y127_Y127H] based on its phosphorylation enrichment.
I

Assign a bin to GGMAEYTRLHN [EHHADH_Y4]
I

Band of NFAKMYCNPDA [KNL1_Y489_YF] ?
II

Which bin, given its phosphorylation enrichment, does DLAGRYFALKS [CKB_Y173_YF] occupy?
I

Where would HGEAYYSEVKA [PAK5_Y182_P187A] land among the classes by reported phosphorylation enrichment?
III

Band of QRALLYEDTLY [UNC13D_Y56_A59T] ?
III

Category of SDQPDYDSVAS [GIT2_Y392_N387S] , please.
III

Could you tell me which band GIFEDYVEGLR [MYL6_Y89_T85I_YF] belongs to?
II

Band of RFVTRYIFNRE [HLA-DQB1_Y62_YF] ?
II

Pick a category. Item: PLQKIYNFNVL [SLC4A1_Y553_T552I_YF]
III

Class? Entry: SLIDGYFRLTE [JAK2_Y372_A377E_YF]
II

Each sequence maps to one class by phosphorylation enrichment. Which class for FGVTLYPNSRE [MEP1A_Y472] ?
I

Quick check: band for LVKDPYVMFPQ [PLEKHG2_Y489_P484L]
III

Kindly state the category for this sequence: LTQRTYMSENA [GPAA1_Y49]
I

====

# EXPERIMENTAL TARGET: MERTK (UniProt Q12866)
# Sequence (Q12866 whole entry, looked up): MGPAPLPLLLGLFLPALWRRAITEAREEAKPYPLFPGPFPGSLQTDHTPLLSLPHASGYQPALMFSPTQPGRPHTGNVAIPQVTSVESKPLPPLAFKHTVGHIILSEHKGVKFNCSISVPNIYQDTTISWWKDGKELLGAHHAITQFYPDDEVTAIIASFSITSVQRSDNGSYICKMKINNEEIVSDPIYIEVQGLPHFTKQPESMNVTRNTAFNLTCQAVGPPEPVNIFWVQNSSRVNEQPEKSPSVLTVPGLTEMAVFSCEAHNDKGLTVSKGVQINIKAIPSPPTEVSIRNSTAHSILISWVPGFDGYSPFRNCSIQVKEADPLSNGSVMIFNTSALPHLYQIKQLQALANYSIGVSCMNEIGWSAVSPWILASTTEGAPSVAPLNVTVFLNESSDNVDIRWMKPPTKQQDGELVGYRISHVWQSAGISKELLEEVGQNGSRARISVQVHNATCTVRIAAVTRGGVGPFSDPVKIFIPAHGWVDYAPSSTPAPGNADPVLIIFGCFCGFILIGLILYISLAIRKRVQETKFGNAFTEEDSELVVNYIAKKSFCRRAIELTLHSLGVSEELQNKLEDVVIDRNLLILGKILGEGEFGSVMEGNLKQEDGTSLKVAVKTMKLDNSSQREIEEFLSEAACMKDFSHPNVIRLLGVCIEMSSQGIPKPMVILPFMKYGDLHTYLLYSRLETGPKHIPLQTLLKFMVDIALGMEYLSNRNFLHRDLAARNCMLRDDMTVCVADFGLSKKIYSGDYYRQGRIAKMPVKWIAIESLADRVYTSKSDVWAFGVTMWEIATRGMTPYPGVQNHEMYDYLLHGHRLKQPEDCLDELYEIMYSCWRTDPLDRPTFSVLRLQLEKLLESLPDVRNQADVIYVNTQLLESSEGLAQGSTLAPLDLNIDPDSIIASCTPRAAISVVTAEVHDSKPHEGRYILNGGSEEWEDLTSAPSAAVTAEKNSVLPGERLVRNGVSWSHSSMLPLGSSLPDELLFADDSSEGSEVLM
# ASSAY: phosphorylation enrichment, bacterial display (enrichment ratio); higher = better substrate or ligand; peptides without Tyr show the background
Task for the reader: assign each of the following sequences its reported phosphorylation enrichment.
Answers are plain numbers.

A selection of reference data follows.
Form entry - test system: MERTK (UniProt Q12866); read-out: phosphorylation enrichment; sequence: PKSLFYLLLKL [TRPC6_Y775]
1.54

Quick check: phosphorylation enrichment on MERTK (UniProt Q12866), item WEPFGYAVTRC [PTPRT_Y412] ?
0.345

Form field: phosphorylation enrichment recorded for GPIEVYLCPEE [E2F3_Y349] with MERTK (UniProt Q12866) (enter value)
0.437

MERTK (UniProt Q12866) / phosphorylation enrichment / FSDPDYLAAVD [GLB1_Y154_S149F] : value?
0.42

What is its phosphorylation enrichment for MERTK (UniProt Q12866)? Entry: PLFRVYGLESL [INSR_Y94_L89P]
0.508

Form entry - test system: MERTK (UniProt Q12866); read-out: phosphorylation enrichment; sequence: KVPRHYDDPGK [FOXG1_Y246]
0.462

Hello, I would appreciate it if you could give phosphorylation enrichment for each entry below.
1. AFHGEYIPTVF [RAC2_Y32_P29H]
2. FSALDYKIFYY [WDPCP_Y210_L205F]
3. DFSLKYATDIP [APC_Y1183_YF]
4. KRFRIYHLAIS [BRCA2_Y3009_T3013I_YF]
5. GLTSTYAGIRK [ROBO1_Y932]

1: 0.432; 2: 0.462; 3: 0.374; 4: 0.484; 5: 0.497

Go through the list and state phosphorylation enrichment for each entry.
1. DASAVYLHDFQ [PLCG2_Y242]
2. SIKHKYVTALF [KCNH2_Y611_D609H_YF]
3. CEHRGYLYLAI [TEK_Y897]
4. KMKGEYYRYLA [YWHAG_Y130_D129E]

[0.477, 0.4, 0.708, 0.957]

====

# EXPERIMENTAL TARGET: Fyn (UniProt P06241)
# Sequence (P06241 whole entry, looked up): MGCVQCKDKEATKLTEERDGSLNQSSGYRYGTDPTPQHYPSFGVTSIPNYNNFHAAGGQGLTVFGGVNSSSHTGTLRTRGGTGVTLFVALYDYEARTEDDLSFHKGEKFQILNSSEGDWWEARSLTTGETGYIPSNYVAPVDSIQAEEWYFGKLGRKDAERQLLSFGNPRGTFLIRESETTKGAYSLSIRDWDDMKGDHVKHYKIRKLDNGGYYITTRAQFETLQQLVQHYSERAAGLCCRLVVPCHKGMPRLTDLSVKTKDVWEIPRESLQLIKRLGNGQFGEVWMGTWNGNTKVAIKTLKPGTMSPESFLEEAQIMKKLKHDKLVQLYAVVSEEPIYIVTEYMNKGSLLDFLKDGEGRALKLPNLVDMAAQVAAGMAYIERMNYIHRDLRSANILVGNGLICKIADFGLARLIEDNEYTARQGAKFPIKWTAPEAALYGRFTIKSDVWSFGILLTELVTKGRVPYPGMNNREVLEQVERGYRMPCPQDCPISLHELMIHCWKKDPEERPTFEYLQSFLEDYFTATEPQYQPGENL
# ASSAY: phosphorylation enrichment, bacterial display (enrichment ratio); higher = better substrate or ligand; peptides without Tyr show the background
ENDPOINT: phosphorylation enrichment
Answers are plain numbers.

# get_value(readout='phosphorylation enrichment', item= HGVSSYDTIIS [LDLR_Y465_V468I] )
0.669

Which measured phosphorylation enrichment value corresponds to LALTVYADCLA [ABCA4_Y2063_G2059A] ?
0.699

Name the reported phosphorylation enrichment value associated with the sequence KIITDYFVDMK [MPP4_Y566_V562I_YF]
0.513

Look up phosphorylation enrichment: LCRYGYANTSE [SI_Y1233]
0.688

Look up phosphorylation enrichment for this sequence: ANLAKYGNPNE [BCHE_Y505_F502L]
0.385

Quick one: give me phosphorylation enrichment for each item below, same order please.
1. PADRAYSWFQH [NDST1_Y711_YF]
2. RLLRGYNQSAF [HLA-C_Y137_D138N_YF]
3. ADDSYYTVRSA [ZAP70_Y493_A495V]
4. DFSLKYATDIP [APC_Y1183_YF]
5. KQLYAYKMLMA [TMC2_Y209]

1. 0.833
2. 0.458
3. 2.01
4. 0.524
5. 0.39

====

# EXPERIMENTAL TARGET: SHP2-C SH2
# ASSAY: SH2 binding enrichment of the phosphorylated peptide, bacterial display (enrichment ratio); higher = better substrate or ligand; peptides without Tyr show the background
Give Condition met when the value for SH2 binding enrichment is at least 0.6. Give Condition not met when it is less.

Form field: SH2 binding enrichment at least 0.6? Entry: GMTRNYIIFIE [BCO2_Y294]
Condition met

Answer whether SH2 binding enrichment of AIMSFYATLID [RYR1_Y2426_A2428T] is greater than or equal to 0.6.
Condition met

Quick check, SH2 binding enrichment >= 0.6? ECKASCPGKIT [PRSS3_Y232_Y232C]
Condition not met

---
Please tell me: is the sequence RAMPVYEKAEH [TP63_Y231_K232E] at or over 0.6 in terms of SH2 binding enrichment?
Condition not met

Quick check: does LIEQAYDNLHE [PRPF8_Y871_P874L] have SH2 binding enrichment greater than or equal to 0.6?
Condition met

Threshold query (SH2 binding enrichment >= 0.6) on AEFGLYGAMVR [VSX2_Y222_YF]
Condition met

Does SH2 binding enrichment meet or surpass 0.6 for AGADGYGYLAP [FOXL2_Y186] ?
Condition not met

Is SH2 binding enrichment at least 0.6? Consider INMKEYCKKDY [NTN1_Y490_K489E]
Condition not met

Decide: SH2 binding enrichment of PIFEGYALPHA [ACTA1_Y171_YF] >= 0.6?
Condition met

API: above_or_equal(metric=SH2 binding enrichment, cutoff=0.6) for item IVAREYYSDAD [CAMK2A_Y106_E109D]
Condition met

Please indicate if the recorded SH2 binding enrichment for VVEFGYEFFAK [PPP1CB_Y254_D252Y_YF] meets or exceeds 0.6.
Condition met

====

# EXPERIMENTAL TARGET: c-Src SH2
# ASSAY: SH2 binding enrichment of the phosphorylated peptide, bacterial display (enrichment ratio); higher = better substrate or ligand; peptides without Tyr show the background
For each record, write down the corresponding SH2 binding enrichment.
Numbers only.

Example sequences with recorded SH2 binding enrichment:
Requested read-out SH2 binding enrichment, target or system c-Src SH2, entry KLFFHYDPKLC [INSR_Y457_N458D]
0.542

Hello, I am looking for reported SH2 binding enrichment with c-Src SH2 for PGPQSYPTVTG [PAX5_Y299_I301T] . Could you help?
0.513

# returns recorded SH2 binding enrichment (system: c-Src SH2) for LFSINYLHFGD [KDM4C_Y201_E206D_YF]
1.24

Please state, for each entry, its recorded SH2 binding enrichment.
1. GGQEDYDRLRP [RAC3_Y64_A59G]
2. MNLLGYRQVRS [CHST4_Y359_H361Q]
3. QELRRYLKSSV [MICA_Y194_G198S]
4. DLDTDYGSGFP [RNASEH2A_Y206_YF]
5. ATARPYSPFII [LRP5_Y1528_R1529S_YF]

1: 0.591; 2: 0.515; 3: 0.426; 4: 0.404; 5: 0.715

Give one value of SH2 binding enrichment per listed sequence.
1. QQLQGYVPSNY [FRK_Y99_I100V]
2. PDGVEYLKNNP [GRIN3A_Y831_D835N]

0.562
0.348

====

# EXPERIMENTAL TARGET: Fes (UniProt P07332)
# Sequence (P07332 whole entry, looked up): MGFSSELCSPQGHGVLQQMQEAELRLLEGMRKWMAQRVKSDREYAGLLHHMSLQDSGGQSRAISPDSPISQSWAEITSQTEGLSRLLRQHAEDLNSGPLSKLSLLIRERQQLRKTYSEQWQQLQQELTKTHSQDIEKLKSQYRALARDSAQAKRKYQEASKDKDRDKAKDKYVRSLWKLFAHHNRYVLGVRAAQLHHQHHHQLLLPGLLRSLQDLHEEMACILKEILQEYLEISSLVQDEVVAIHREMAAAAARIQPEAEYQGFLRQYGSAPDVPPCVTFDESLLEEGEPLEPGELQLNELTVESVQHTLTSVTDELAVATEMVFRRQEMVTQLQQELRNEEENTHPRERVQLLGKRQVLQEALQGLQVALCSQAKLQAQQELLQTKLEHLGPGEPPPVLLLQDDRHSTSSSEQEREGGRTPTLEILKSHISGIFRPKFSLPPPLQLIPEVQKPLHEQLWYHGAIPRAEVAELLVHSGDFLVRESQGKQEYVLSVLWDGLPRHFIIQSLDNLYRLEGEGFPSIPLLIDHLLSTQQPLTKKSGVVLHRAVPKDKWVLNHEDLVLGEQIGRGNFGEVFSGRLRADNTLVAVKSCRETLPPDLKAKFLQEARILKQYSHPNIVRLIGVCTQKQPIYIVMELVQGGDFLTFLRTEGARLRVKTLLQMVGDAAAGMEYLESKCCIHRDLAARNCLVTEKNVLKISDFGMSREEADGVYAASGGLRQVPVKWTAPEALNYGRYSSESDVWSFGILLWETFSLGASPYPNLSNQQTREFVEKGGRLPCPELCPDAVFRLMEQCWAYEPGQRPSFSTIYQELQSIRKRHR
# ASSAY: phosphorylation enrichment, bacterial display (enrichment ratio); higher = better substrate or ligand; peptides without Tyr show the background
Answer each item with its documented phosphorylation enrichment.
One number for each entry.

Consider the sequence NHFKIYNPCAE [PTEN_Y68_L70P_YF] and give its measured phosphorylation enrichment.
0.996

Could you share which phosphorylation enrichment value was measured for NFAKMYCNPDA [KNL1_Y489_YF] ?
1.02

Next:
Given EREYKYDAHNY [OAT_Y50_G51D] , state its recorded phosphorylation enrichment.
1
